Taken from the supplement of paper PMC6992640.

# Tested on: WHIM30 (cells of a triple-negative basal-like breast cancer xenograft)
# assayInfo: cell viability (% of vehicle); higher = less cytotoxic
# assayConditions: 10 µM; 72 h
For each record, write down the corresponding cell viability.

>  <molecule>
Clc1ccc(C(c2ccccc2Cl)C(Cl)Cl)cc1 (configuration not stated) [Mitotane (Lsodren)]

>  <cell viability>
142

$$$$

State the recorded cell viability for every item in the following list.
1. O=C(O)COCCN1CCN(C(c2ccccc2)c2ccc(Cl)cc2)CC1 (configuration not stated) [Cetirizine]
2. Cc1c(C(=O)Nc2ccc(N3CC(C)OC(C)C3)nc2)cccc1-c1ccc(OC(F)(F)F)cc1 (configuration not stated) [LDE225 (NVP-LDE225,Erismodegib)]
3. COc1cc(Nc2c(C#N)cnc3cc(OCCCN4CCN(C)CC4)c(OC)cc23)c(Cl)cc1Cl [Bosutinib (SKI-606)]
4. Cc1ccc(O)c(C(CCN(C(C)C)C(C)C)c2ccccc2)c1.O=C(O)C(O)C(O)C(=O)O (configuration not stated) [Tolterodine tartrate]
5. NCCC(O)C(=O)NC1CC(N)C(OC2OC(CN)C(O)C(O)C2O)C(O)C1OC1OC(CO)C(O)C(N)C1O (configuration not stated) [Amikacin]
6. CN1CCCC(n2nc(Cc3ccc(Cl)cc3)c3ccccc3c2=O)CC1.Cl (configuration not stated) [Azelastine HCl]

[128, 86.1, 52.1, 92.5, 117, 94.9]

----------
# System: WHIM30
# assayInfo: cell viability (% of vehicle); higher = less cytotoxic
# assayConditions: 10 µM; 72 h
endpoint: cell viability
Answers are plain numbers.

Items follow; give cell viability for each.
1. CCOC(=O)C1=CC(OC(CC)CC)C(NC(C)=O)C(N)C1.O=P(O)(O)O (centres undefined) [Oseltamivir phosphate]
2. COc1ccccc1OCC(O)CO (centres undefined) [Guaifensin]
3. COCCCCC(=NOCCN)c1ccc(C(F)(F)F)cc1.O=C(O)C=CC(=O)O [Fluvoxamine maleate]
4. O=c1ccc2ccccc2o1 [Coumarin]

1: 113; 2: 141; 3: 107; 4: 114

Provide each entry's cell viability from the list below.
1. CCOC(=O)C1=C(COCCN)NC(C)=C(C(=O)OC)C1c1ccccc1Cl (centres undefined) [Amlodipine]
2. CCOC(=O)c1ccc(OC(=O)CCCCCN=C(N)N)cc1.CS(=O)(=O)O [Gabexate mesylate]

[73.4, 180]

----------
# Test system: HCI16 (cells of a triple-negative basal-like breast cancer xenograft)
# assayInfo: cell viability (% of vehicle); higher = less cytotoxic
# assayConditions: 10 µM; 72 h
Field: cell viability. Provide a value for each of the molecules that follow.
One number for each entry.

Look up cell viability for the entries below, preserving their order.
1. NC(CO)(CO)CO.O=C(c1ccccc1)c1ccc2n1CCC2C(=O)O (configuration not stated) [Ketorolac tromethamine salt]
2. CCC1OC(=O)CC(O)C(C)C(OC2OC(C)C(OC3CC(C)(O)C(O)C(C)O3)C(N(C)C)C2O)C(CC=O)CC(C)C(=O)C=CC(C)=CC1COC1OC(C)C(O)C(OC)C1OC.O=C(O)C(O)C(O)C(=O)O (configuration not stated) [Tylosin tartrate]
3. CN=C(NC#N)NCCSCc1nc[nH]c1C
4. CN1CCC(=C2c3ccccc3CC(=O)c3sccc32)CC1.O=C(O)C=CC(=O)O [Ketotifen Fumarate]
5. COc1cc(Nc2nc3ccccc3nc2NS(=O)(=O)c2ccc(NC(=O)c3ccc(C)c(OC)c3)cc2)cc(OC)c1
6. CCCCC1C(=O)N(c2ccccc2)N(c2ccccc2)C1=O

[131, 126, 115, 173, 94.9, 120]

Sample CC1(C)OC2COC3(COS(N)(=O)=O)OC(C)(C)OC3C2O1 (configuration not stated) [Topiramate] ; cell viability observed: 115

----------
# Tested on: HCI01 (cells of a triple-negative basal-like breast cancer xenograft)
# assayInfo: cell viability (% of vehicle); higher = less cytotoxic
# assayConditions: 10 µM; 72 h
endpoint: cell viability
Numbers only.

Solved entries (count: 3):
>  <compound>
O=C(O)CC(O)CC(O)C=Cc1c(C2CC2)nc2ccccc2c1-c1ccc(F)cc1 (centres undefined)

>  <cell viability>
119

$$$$
>  <compound>
CCCCCCCCCCCCCCCCCCCCCCO

>  <cell viability>
82.8

$$$$
>  <compound>
CCCC(=O)OCOC(=O)C1=C(C)NC(C)=C(C(=O)OC)C1c1cccc(Cl)c1Cl (centres undefined) [Clevidipine Butyrate]

>  <cell viability>
107

$$$$

# map each compound to its cell viability
1. C[C@H](C(=O)O)c1ccc(-c2ccccc2)c(F)c1 [(S)-Flurbiprofen]
2. CC1CC2C3CCC4=CC(=O)C=CC4(C)C3(Cl)C(O)CC2(C)C1(OC(=O)c1ccco1)C(=O)CCl (centres undefined) [Mometasone furoate]
3. Cl.NC(N)=NC(=O)c1nc(Cl)c(N)nc1N.O.O [Amiloride HCl dihydrate]

[109, 94.8, 99.2]

Hey, quick one: what's cell viability for each of these?
1. CCN1CCN(C(=O)NC(C(=O)NC2C(=O)N3C2SC(C)(C)C3C(=O)[O-])c2ccccc2)C(=O)C1=O.[Na+] (centres undefined) [Piperacillin Sodium]
2. CC(C)(O/N=C(\C(=O)N[C@@H]1C(=O)N2C(C(=O)[O-])=C(C[n+]3ccccc3)CS[C@H]12)c1csc(N)n1)C(=O)O
3. Cl.Cl.NC(=NCCCCCCN=C(N)N=C(N)Nc1ccc(Cl)cc1)N=C(N)Nc1ccc(Cl)cc1 [Chlorhexidine HCl]
4. Cl.O=C(CCCN1CCC(O)(c2ccc(Cl)cc2)CC1)c1ccc(F)cc1 [Haloperidol hydrochloride]

109
101
99.4
114

Take each entry in turn and give its cell viability.
1. Nc1nc(N)nc(-c2cc(Cl)ccc2Cl)n1
2. CC1(C)O[C@@H]2C[C@H]3[C@@H]4C[C@H](F)C5=CC(=O)C=C[C@]5(C)[C@@]4(F)[C@@H](O)C[C@]3(C)[C@]2(C(=O)CO)O1 [Fluocinolone Acetonide]

1. 92.7
2. 84

# per-item lookup of cell viability; items listed below
1. CCCN(CCC)CCc1cccc2c1CC(=O)N2.Cl [Ropinirole HCl]
2. CCC(=C(CC)c1ccc(O)cc1)c1ccc(O)cc1

1: 61.7; 2: 59.1

----------
For each entry below, report its cell viability value.
# Test system: UCD52 (cells of a triple-negative basal-like breast cancer xenograft);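 further: cells dissociated from PDX tumors propagated in female NSG mouse mammary fat pads, vehicle control 0.1% DMSO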
# assayInfo: cell viability (% of vehicle); higher = less cytotoxic
# assayConditions: 1 µM; 72 h
One number for each entry.

Below, each entry is followed by its recorded cell viability result.
>  <compound>
CC(C)C(=O)OCC(=O)[C@@]12O[C@H](C3CCCCC3)O[C@@H]1C[C@H]1[C@@H]3CCC4=CC(=O)C=C[C@]4(C)[C@H]3[C@@H](O)C[C@@]12C [Ciclesonide]

>  <endpoint>
cell viability

>  <observed>
127

$$$$
>  <compound>
CC1CC(=O)NN=C1c1ccc(NN=C(C#N)C#N)cc1 (centres undefined) [Levosimendan]

>  <endpoint>
cell viability

>  <observed>
95.2

$$$$

I'm hoping you can list cell viability for every compound here, please.
1. O=C(C=Cn1cnc(-c2cc(C(F)(F)F)cc(C(F)(F)F)c2)n1)NNc1cnccn1
2. CC(C)C[C@H](NC(=O)[C@H](Cc1ccccc1)NC(=O)c1cnccn1)B(O)O [Bortezomib]

1: 59.5; 2: 21.6

----------
# System: HCI01
# assayInfo: cell viability (% of vehicle); higher = less cytotoxic
# assayConditions: 10 µM; 72 h
endpoint: cell viability
Answers are plain numbers.

>  <molecule>
CNC(=O)c1cc(Oc2ccc(NC(=O)Nc3ccc(Cl)c(C(F)(F)F)c3)cc2)ccn1 [Sorafenib]

>  <assayedTarget>
HCI01

>  <cell viability>
43.2

$$$$

Quick one: give me cell viability for each item below, same order please.
1. CCN1CCCC1CNC(=O)c1cc(S(N)(=O)=O)ccc1OC (stereo not drawn) [Levosulpiride]
2. Cc1cc(=O)n(-c2ccccc2)n1C [Antipyrine]
3. CN1CCCC1c1cccnc1.O=C(O)C(O)C(O)C(=O)O.O=C(O)C(O)C(O)C(=O)O (stereo not drawn) [Nicotine Difartrate]
4. CCCN(CCC)S(=O)(=O)c1ccc(C(=O)O)cc1 [Probenecid]
5. Cl.c1ccc(CN(CC2=NCCN2)c2ccccc2)cc1 [Antazoline HCl]
6. Cc1nc2n(c(=O)c1CCN1CCC(c3noc4cc(F)ccc34)CC1)CCCC2O (stereo not drawn) [Paliperidone]
7. COc1cc(NS(=O)(=O)c2ccc(N)cc2)nc(OC)n1 [Sulfadimethoxine]

127
110
115
102
134
106
91.8

----------
# System: WHIM30
# assayInfo: cell viability (% of vehicle); higher = less cytotoxic
# assayConditions: 10 µM; 72 h
endpoint: cell viability
One number for each entry.

# annotated cases, reported cell viability shown
>  <compound>
C#Cc1cccc(Nc2ncnc3cc(OCCOC)c(OCCOC)cc23)c1

>  <cell viability>
107

$$$$
>  <compound>
CNCC(O)C(O)C(O)C(O)CO (stereo not drawn)

>  <cell viability>
133

$$$$
>  <compound>
CNS(=O)(=O)CCc1ccc2[nH]cc(C3CCN(C)CC3)c2c1.Cl

>  <cell viability>
109

$$$$
>  <compound>
COC1C(O)CC(=O)OC(C)CC=CC=CC(OC2CCC(N(C)C)C(C)O2)C(C)CC(CC=O)C1OC1OC(C)C(OC2CC(C)(O)C(O)C(C)O2)C(N(C)C)C1O (stereo not drawn)

>  <cell viability>
123

$$$$
>  <compound>
CN1C2CCC1CC(OC(c1ccccc1)c1ccccc1)C2.CS(=O)(=O)O (stereo not drawn) [Benztropine mesylate]

>  <cell viability>
141

$$$$

// each compound listed below needs its cell viability
1. CCCN(CCC)CCc1cccc2c1CC(=O)N2.Cl [Ropinirole HCl]
2. Cc1[nH]c(=O)c(C#N)cc1-c1ccncc1
3. Cc1cn(C2CC(N=[N+]=[N-])C(CO)O2)c(=O)[nH]c1=O (stereo not drawn)

[126, 106, 144]
